- ASSAYED SYSTEM: CRBN/DDB1 (Homo sapiens (Human))
- Sequence (Q96SW2 whole entry, species assumed): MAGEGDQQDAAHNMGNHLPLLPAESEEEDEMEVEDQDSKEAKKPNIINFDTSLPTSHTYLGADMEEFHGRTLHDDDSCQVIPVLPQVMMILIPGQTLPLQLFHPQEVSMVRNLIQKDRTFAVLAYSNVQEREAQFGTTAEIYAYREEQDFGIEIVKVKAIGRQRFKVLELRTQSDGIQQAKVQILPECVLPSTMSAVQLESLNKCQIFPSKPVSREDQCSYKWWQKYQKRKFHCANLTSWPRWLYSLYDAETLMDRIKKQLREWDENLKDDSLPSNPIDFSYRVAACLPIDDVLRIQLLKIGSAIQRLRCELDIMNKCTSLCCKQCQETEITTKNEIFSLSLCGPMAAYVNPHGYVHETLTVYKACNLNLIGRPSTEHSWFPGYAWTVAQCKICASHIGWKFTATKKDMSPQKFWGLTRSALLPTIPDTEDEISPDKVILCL
- Sequence (Q16531 whole entry partner, species assumed): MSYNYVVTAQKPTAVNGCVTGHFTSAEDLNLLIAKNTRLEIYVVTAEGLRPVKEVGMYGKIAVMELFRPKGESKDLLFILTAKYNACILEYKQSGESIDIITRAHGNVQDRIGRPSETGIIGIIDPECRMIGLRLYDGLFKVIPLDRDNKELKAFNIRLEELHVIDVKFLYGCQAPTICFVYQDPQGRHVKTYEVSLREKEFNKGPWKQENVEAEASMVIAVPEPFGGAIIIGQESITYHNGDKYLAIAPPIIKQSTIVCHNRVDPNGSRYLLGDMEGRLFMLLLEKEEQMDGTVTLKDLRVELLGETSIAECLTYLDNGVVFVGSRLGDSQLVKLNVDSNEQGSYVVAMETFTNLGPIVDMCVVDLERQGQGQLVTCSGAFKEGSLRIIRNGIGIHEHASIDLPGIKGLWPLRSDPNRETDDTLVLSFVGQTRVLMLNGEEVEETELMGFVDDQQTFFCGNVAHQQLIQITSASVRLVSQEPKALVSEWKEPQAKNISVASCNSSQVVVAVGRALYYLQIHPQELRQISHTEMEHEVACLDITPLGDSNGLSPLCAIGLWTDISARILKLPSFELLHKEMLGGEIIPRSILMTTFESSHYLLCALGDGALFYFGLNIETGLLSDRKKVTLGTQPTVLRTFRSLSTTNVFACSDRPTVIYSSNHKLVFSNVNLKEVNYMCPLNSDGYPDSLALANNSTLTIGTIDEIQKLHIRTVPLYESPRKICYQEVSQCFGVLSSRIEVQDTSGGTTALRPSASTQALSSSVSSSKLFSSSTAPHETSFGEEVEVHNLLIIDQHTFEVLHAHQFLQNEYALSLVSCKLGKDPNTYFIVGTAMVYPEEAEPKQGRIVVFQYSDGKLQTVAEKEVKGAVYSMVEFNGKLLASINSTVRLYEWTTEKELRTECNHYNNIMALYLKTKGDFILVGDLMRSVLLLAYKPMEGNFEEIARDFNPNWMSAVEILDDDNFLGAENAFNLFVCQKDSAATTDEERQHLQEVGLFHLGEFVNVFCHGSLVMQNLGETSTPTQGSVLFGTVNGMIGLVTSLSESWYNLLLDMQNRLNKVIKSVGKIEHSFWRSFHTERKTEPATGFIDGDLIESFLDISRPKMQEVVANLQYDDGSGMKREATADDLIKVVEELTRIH
- PROTOCOL DETAILS: IC50 measurements for binding to CRBN/DDB1 (HTRF)
- CONDITION DESCRIPTION: His tagged CRBN+DDB, Cy5-labeled Thalidomide probe, one hour
pIC50: −log10 of the molar value.
READOUT TYPE: pIC50

[[record]]
molecule = "Cn1ccc2c(CN3CCC(F)C3)cc(-c3ccc4c(c3)CN(C3CCC(=O)NC3=O)C4=O)nc21 (stereo not shown)"
readout_type = "pIC50"
endpoint_result = "5.30 to 6.00"

[[record]]
molecule = "Cn1ccc2c(C(=O)N3CCCC3)cc(-c3ccc4c(c3)CN(C3CCC(=O)NC3=O)C4=O)nc21 (stereo not shown)"
readout_type = "pIC50"
endpoint_result = "6.00 to 6.30"

[[record]]
molecule = "O=C1CCC(N2Cc3cc(-c4cc(CNCc5ccccc5Cl)cn5ccnc45)ccc3C2=O)C(=O)N1 (stereo not shown)"
readout_type = "pIC50"
endpoint_result = "6.30 to 7.00"

[[record]]
molecule = "Cn1ccc2nc(-c3ccc4c(c3)CN(C3CCC(=O)NC3=O)C4=O)cc(CN3CCC3)c21 (stereo not shown)"
readout_type = "pIC50"
endpoint_result = "6.00 to 6.30"

[[record]]
molecule = "O=C1CCC(N2Cc3cc(-c4cc(CN5CC(CO)C5)c5ccn(C6COC6)c5n4)ccc3C2=O)C(=O)N1 (stereo not shown)"
readout_type = "pIC50"
endpoint_result = "6.30 to 7.00"


Reported pIC50, molecule CC(C)Nc1ccnc2c(CN3CCCC3)cc(-c3ccc4c(c3)CN(C3CCC(=O)NC3=O)C4=O)nc12 (stereo not shown) : ____
5.30 to 6.00

// query pIC50 value for entry N#CCn1ccc2c(CN3CCCC3)cc(-c3ccc4c(c3)CN(C3CCC(=O)NC3=O)C4=O)nc21 (stereo not shown)
6.30 to 7.00
